# ASSAY TARGET: Muscarinic acetylcholine receptor M1 (Homo sapiens, UniProt P11229)
# Sequence (P11229 whole entry): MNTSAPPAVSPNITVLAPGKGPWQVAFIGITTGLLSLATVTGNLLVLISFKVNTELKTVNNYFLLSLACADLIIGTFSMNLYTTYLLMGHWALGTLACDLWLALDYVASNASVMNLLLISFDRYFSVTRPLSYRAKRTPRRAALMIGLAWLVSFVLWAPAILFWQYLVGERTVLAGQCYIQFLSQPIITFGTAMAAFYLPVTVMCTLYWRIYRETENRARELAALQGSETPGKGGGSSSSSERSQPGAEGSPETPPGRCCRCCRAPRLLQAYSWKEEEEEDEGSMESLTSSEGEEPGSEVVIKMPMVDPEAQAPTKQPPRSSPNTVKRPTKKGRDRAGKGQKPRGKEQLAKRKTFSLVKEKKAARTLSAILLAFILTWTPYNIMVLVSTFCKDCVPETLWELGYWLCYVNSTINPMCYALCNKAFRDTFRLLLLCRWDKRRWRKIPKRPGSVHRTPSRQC
# ASSAY PROTOCOL: Binding affinity to human cloned muscarinic receptor M1 expressed in CHO cells
# Assay type: cell-based
MEASURED PARAMETER: Ki

[
  {
    "STRUCTURE SMILES": "C[N+]1(C)CCC[C@@H]1[C@@H]1CS[C@@](c2ccccc2)(C2CCCCC2)O1",
    "RESULT": "0.501 nM (antagonist)"
  },
  {
    "STRUCTURE SMILES": "C[N+](C)(C)C[C@@H]1CS[C@@](c2ccccc2)(C2CCCCC2)O1",
    "RESULT": "1.1 nM (antagonist)"
  },
  {
    "STRUCTURE SMILES": "C[N+]1(C)CCC[C@@H]1[C@@H]1CSC(c2ccccc2)(c2ccccc2)O1",
    "RESULT": "2.34 nM (antagonist)"
  },
  {
    "STRUCTURE SMILES": "CN1CCC[C@H]1[C@H]1CSC(c2ccccc2)(c2ccccc2)O1",
    "RESULT": "3.47 nM (antagonist)"
  },
  {
    "STRUCTURE SMILES": "C[N+]1(C)CCC[C@H]1[C@H]1CSC(c2ccccc2)(c2ccccc2)O1",
    "RESULT": "0.295 nM (antagonist)"
  },
  {
    "STRUCTURE SMILES": "CN1CCC[C@@H]1[C@@H]1CS[C@@](c2ccccc2)(C2CCCCC2)O1",
    "RESULT": "0.912 nM (antagonist)"
  },
  {
    "STRUCTURE SMILES": "C[N+]1(C)CCC[C@H]1[C@H]1CS[C@](c2ccccc2)(C2CCCCC2)O1",
    "RESULT": "0.251 nM (antagonist)"
  },
  {
    "STRUCTURE SMILES": "C[N+]1(C)CCC[C@H]1[C@H]1CS[C@@](c2ccccc2)(C2CCCCC2)O1",
    "RESULT": "0.117 nM (antagonist)"
  },
  {
    "STRUCTURE SMILES": "CN1CCC[C@@H]1[C@@H]1CSC(c2ccccc2)(c2ccccc2)O1",
    "RESULT": "0.759 nM (antagonist)"
  },
  {
    "STRUCTURE SMILES": "CN1CCC[C@H]1[C@H]1CS[C@](c2ccccc2)(C2CCCCC2)O1",
    "RESULT": "1.48 nM (antagonist)"
  },
  {
    "STRUCTURE SMILES": "C[N+]1(C)CCC[C@@H]1[C@@H]1CS[C@](c2ccccc2)(C2CCCCC2)O1",
    "RESULT": "0.955 nM (antagonist)"
  },
  {
    "STRUCTURE SMILES": "CN1CCC[C@H]1[C@H]1CS[C@@](c2ccccc2)(C2CCCCC2)O1",
    "RESULT": "1.38 nM (antagonist)"
  },
  {
    "STRUCTURE SMILES": "CN1CCC[C@@H]1[C@@H]1CS[C@](c2ccccc2)(C2CCCCC2)O1",
    "RESULT": "0.347 nM (antagonist)"
  }
]

---

# ASSAY TARGET: UniProt:P08172
# Sequence (P08172 whole entry): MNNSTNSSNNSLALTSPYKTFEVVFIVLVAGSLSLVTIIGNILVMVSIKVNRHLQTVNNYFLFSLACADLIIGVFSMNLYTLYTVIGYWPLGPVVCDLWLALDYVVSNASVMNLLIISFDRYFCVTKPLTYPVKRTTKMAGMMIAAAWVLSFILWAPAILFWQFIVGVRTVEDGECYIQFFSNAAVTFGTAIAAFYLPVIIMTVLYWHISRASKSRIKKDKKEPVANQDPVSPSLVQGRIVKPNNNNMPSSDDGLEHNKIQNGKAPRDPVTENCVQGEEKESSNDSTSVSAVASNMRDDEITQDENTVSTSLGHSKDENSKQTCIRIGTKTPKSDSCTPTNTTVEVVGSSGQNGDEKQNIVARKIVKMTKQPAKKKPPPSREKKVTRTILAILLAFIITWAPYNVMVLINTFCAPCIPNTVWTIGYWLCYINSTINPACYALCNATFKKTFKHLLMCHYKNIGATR
# ASSAY PROTOCOL: Binding affinity to human cloned muscarinic receptor M2 expressed in CHO cells
# Type: cell-based
Below, each entry is listed alongside its reported Ki.

[
  {
    "STRUCTURE SMILES": "C[N+]1(C)CCC[C@H]1[C@H]1CS[C@](c2ccccc2)(C2CCCCC2)O1",
    "Ki": "0.776 nM (antagonist)"
  },
  {
    "STRUCTURE SMILES": "CN1CCC[C@@H]1[C@@H]1CS[C@](c2ccccc2)(C2CCCCC2)O1",
    "Ki": "1.07 nM (antagonist)"
  },
  {
    "STRUCTURE SMILES": "CN1CCC[C@H]1[C@H]1CS[C@](c2ccccc2)(C2CCCCC2)O1",
    "Ki": "4.27 nM (antagonist)"
  },
  {
    "STRUCTURE SMILES": "C[N+](C)(C)C[C@@H]1CS[C@@](c2ccccc2)(C2CCCCC2)O1",
    "Ki": "7.59 nM (antagonist)"
  }
]

---

# Tested on: Muscarinic acetylcholine receptor M4, putative (Cavia porcellus)
# ASSAY PROTOCOL: Antagonist activity at putative muscarinic receptor M4 assessed as contraction of electrically-stimulated guinea pig lung strips
# PROTOCOL CONDITIONS: filed as antagonist
MEASURED PARAMETER: pKb

[
  {
    "STRUCTURE SMILES": "C[N+]1(C)CCC[C@H]1[C@H]1CSC(c2ccccc2)(c2ccccc2)O1",
    "NUMBER": 7.79
  },
  {
    "STRUCTURE SMILES": "C[N+]1(C)CCC[C@@H]1[C@@H]1CSC(c2ccccc2)(c2ccccc2)O1",
    "NUMBER": 6.52
  },
  {
    "STRUCTURE SMILES": "C[N+]1(C)CCC[C@H]1[C@H]1CS[C@@](c2ccccc2)(C2CCCCC2)O1",
    "NUMBER": 7.99
  }
]

---

# System: Muscarinic acetylcholine receptor M1, putative (Oryctolagus cuniculus)
# PROTOCOL CONDITIONS: Vas deferens, filed as antagonist

[
  {
    "STRUCTURE SMILES": "C[N+]1(C)CCC[C@H]1[C@H]1CSC(c2ccccc2)(c2ccccc2)O1",
    "ASSAY TARGET": "Muscarinic acetylcholine receptor M1, putative (Oryctolagus cuniculus)",
    "pKb": 9.56
  },
  {
    "STRUCTURE SMILES": "C[N+]1(C)CCC[C@H]1[C@H]1CS[C@](c2ccccc2)(C2CCCCC2)O1",
    "ASSAY TARGET": "Muscarinic acetylcholine receptor M1, putative (Oryctolagus cuniculus)",
    "pKb": 9.52
  },
  {
    "STRUCTURE SMILES": "CN1CCC[C@@H]1[C@@H]1CS[C@@](c2ccccc2)(C2CCCCC2)O1",
    "ASSAY TARGET": "Muscarinic acetylcholine receptor M1, putative (Oryctolagus cuniculus)",
    "pKb": 7.95
  },
  {
    "STRUCTURE SMILES": "C[N+]1(C)CCC[C@H]1[C@H]1CS[C@@](c2ccccc2)(C2CCCCC2)O1",
    "ASSAY TARGET": "Muscarinic acetylcholine receptor M1, putative (Oryctolagus cuniculus)",
    "pKb": 9.97
  },
  {
    "STRUCTURE SMILES": "CN1CCC[C@H]1[C@H]1CSC(c2ccccc2)(c2ccccc2)O1",
    "ASSAY TARGET": "Muscarinic acetylcholine receptor M1, putative (Oryctolagus cuniculus)",
    "pKb": 7.93
  },
  {
    "STRUCTURE SMILES": "C[N+]1(C)CCC[C@@H]1[C@@H]1CSC(c2ccccc2)(c2ccccc2)O1",
    "ASSAY TARGET": "Muscarinic acetylcholine receptor M1, putative (Oryctolagus cuniculus)",
    "pKb": 8.49
  }
]

---

# ASSAY TARGET: Muscarinic acetylcholine receptor M5 (Homo sapiens)
# Sequence (P08912 whole entry): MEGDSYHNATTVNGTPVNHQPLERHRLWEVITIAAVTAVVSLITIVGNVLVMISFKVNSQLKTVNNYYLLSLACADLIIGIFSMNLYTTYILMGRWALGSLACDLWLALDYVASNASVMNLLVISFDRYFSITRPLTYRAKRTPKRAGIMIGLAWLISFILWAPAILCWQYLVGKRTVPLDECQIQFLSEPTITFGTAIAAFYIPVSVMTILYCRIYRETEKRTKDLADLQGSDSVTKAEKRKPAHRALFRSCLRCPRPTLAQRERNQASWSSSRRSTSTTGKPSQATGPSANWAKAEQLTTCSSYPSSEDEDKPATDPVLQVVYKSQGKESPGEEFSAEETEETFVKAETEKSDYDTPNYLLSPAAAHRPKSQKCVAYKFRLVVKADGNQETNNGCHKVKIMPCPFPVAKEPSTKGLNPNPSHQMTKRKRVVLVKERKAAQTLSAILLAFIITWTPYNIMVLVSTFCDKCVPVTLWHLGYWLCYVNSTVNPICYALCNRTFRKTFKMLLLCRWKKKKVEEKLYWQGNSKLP
# ASSAY PROTOCOL: Binding affinity to human cloned muscarinic receptor M5 expressed in CHO cells
# Type: cell-based
MEASURED PARAMETER: Ki

[
  {
    "STRUCTURE SMILES": "C[N+]1(C)CCC[C@H]1[C@H]1CS[C@@](c2ccccc2)(C2CCCCC2)O1",
    "RESULT": "0.107 nM (antagonist)"
  },
  {
    "STRUCTURE SMILES": "CN1CCC[C@@H]1[C@@H]1CS[C@](c2ccccc2)(C2CCCCC2)O1",
    "RESULT": "2 nM (antagonist)"
  },
  {
    "STRUCTURE SMILES": "C[N+]1(C)CCC[C@@H]1[C@@H]1CS[C@](c2ccccc2)(C2CCCCC2)O1",
    "RESULT": "3.24 nM (antagonist)"
  },
  {
    "STRUCTURE SMILES": "CN1CCC[C@H]1[C@H]1CS[C@@](c2ccccc2)(C2CCCCC2)O1",
    "RESULT": "1.35 nM (antagonist)"
  }
]
